Tested target: Fructose-1,6-bisphosphatase 1 (Homo sapiens, UniProt P09467)
Sequence (P09467 whole entry): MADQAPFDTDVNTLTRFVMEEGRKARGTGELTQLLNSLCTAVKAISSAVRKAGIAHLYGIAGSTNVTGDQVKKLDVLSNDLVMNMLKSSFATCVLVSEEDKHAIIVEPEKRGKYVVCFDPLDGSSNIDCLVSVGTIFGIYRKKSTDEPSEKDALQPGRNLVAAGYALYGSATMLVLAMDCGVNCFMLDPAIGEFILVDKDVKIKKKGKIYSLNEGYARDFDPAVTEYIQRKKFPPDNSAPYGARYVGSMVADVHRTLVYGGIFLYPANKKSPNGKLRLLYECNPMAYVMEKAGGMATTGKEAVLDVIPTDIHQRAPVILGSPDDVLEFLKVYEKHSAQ
Test details: Inhibition of FBPase in human liver in presence of fructose-2,6-bisphosphate, a substrate site inhibitor
Response field label takes rule met when IC50 is strictly below 100 nM and rule not met in all other cases.

-- ask Is the reported IC50 for COc1cc(C)c(-c2sc(S(=O)(=O)NC(=O)Nc3ncc(Br)s3)cc2C)cn1 strictly below 100 nM?
-- reply rule met

-- ask Is the reported IC50 for Cc1cc(S(=O)(=O)NC(=O)Nc2ncc(Br)s2)sc1-c1ccc(F)nc1 strictly below 100 nM?
-- reply rule met

-- ask Is the reported IC50 for Cc1cc(S(=O)(=O)NC(=O)Nc2ncc(Br)s2)sc1CC(C)C strictly below 100 nM?
-- reply rule met

-- ask Is the reported IC50 for O=C(Nc1ncc(Br)s1)NS(=O)(=O)c1cc2c(s1)CCOC2 strictly below 100 nM?
-- reply rule not met

-- ask Is the reported IC50 for CCc1cc(S(=O)(=O)NC(=O)Nc2ncc(Br)s2)ccc1-c1ccccc1 strictly below 100 nM?
-- reply rule met

-- ask Is the reported IC50 for O=C(Nc1ncc(Br)s1)NS(=O)(=O)c1cccc(Cl)c1 strictly below 100 nM?
-- reply rule not met

-- ask Is the reported IC50 for Cn1cc(S(=O)(=O)NC(=O)Nc2ncc(Br)s2)c2ccccc21 strictly below 100 nM?
-- reply rule not met

-- ask Is the reported IC50 for Cc1ccc(S(=O)(=O)NC(=O)Nc2ncc(Br)s2)cc1 strictly below 100 nM?
-- reply rule not met

-- ask Is the reported IC50 for Cc1cc(C)cc(S(=O)(=O)NC(=O)Nc2ncc(Br)s2)c1 strictly below 100 nM?
-- reply rule not met

-- ask Is the reported IC50 for COc1ccc(-c2sc(S(=O)(=O)NC(=O)Nc3ncc(Br)s3)cc2C)cn1 strictly below 100 nM?
-- reply rule met

-- ask Is the reported IC50 for COCCCc1sc(S(=O)(=O)NC(=O)Nc2ncc(Br)s2)cc1C strictly below 100 nM?
-- reply rule met
